Each entry below carries its reported DC50.
molecular target: GSPT1 (Homo sapiens, UniProt P15170+Q96SW2); experiment: HiBiT degradation assay, GSPT1, Procedure A; type: cell-based; set-up: HiBit-GSPT1 KI HEK293(LgBit) Cells; host or cells: HEK293(LgBit) knock-in cells; conditions: six hours incubation
Sequence (P15170 whole entry): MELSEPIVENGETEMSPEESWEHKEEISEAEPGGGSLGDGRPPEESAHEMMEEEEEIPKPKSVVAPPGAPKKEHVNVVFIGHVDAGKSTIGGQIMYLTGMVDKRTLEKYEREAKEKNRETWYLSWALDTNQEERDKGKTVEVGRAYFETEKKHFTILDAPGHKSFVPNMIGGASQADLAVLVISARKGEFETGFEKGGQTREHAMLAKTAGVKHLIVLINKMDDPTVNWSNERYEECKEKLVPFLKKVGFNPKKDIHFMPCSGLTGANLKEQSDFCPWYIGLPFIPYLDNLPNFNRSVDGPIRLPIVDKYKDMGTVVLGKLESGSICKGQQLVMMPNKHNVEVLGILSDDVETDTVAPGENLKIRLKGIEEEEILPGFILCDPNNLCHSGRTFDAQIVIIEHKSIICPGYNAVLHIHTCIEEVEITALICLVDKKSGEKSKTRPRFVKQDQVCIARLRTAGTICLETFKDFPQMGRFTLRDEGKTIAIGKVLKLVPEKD
Sequence (Q96SW2 whole entry): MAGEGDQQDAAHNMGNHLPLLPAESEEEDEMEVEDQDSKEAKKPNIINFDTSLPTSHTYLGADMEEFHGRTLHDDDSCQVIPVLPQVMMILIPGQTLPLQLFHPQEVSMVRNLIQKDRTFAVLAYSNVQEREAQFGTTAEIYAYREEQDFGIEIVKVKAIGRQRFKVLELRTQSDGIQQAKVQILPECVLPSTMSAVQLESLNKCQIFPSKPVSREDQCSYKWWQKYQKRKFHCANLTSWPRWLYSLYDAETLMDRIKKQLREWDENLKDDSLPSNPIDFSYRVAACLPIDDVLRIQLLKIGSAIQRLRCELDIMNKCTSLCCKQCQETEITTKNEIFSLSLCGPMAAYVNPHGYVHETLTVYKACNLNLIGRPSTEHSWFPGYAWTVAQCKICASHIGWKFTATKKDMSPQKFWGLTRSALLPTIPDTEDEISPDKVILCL
Sequence (Q16531 whole entry partner): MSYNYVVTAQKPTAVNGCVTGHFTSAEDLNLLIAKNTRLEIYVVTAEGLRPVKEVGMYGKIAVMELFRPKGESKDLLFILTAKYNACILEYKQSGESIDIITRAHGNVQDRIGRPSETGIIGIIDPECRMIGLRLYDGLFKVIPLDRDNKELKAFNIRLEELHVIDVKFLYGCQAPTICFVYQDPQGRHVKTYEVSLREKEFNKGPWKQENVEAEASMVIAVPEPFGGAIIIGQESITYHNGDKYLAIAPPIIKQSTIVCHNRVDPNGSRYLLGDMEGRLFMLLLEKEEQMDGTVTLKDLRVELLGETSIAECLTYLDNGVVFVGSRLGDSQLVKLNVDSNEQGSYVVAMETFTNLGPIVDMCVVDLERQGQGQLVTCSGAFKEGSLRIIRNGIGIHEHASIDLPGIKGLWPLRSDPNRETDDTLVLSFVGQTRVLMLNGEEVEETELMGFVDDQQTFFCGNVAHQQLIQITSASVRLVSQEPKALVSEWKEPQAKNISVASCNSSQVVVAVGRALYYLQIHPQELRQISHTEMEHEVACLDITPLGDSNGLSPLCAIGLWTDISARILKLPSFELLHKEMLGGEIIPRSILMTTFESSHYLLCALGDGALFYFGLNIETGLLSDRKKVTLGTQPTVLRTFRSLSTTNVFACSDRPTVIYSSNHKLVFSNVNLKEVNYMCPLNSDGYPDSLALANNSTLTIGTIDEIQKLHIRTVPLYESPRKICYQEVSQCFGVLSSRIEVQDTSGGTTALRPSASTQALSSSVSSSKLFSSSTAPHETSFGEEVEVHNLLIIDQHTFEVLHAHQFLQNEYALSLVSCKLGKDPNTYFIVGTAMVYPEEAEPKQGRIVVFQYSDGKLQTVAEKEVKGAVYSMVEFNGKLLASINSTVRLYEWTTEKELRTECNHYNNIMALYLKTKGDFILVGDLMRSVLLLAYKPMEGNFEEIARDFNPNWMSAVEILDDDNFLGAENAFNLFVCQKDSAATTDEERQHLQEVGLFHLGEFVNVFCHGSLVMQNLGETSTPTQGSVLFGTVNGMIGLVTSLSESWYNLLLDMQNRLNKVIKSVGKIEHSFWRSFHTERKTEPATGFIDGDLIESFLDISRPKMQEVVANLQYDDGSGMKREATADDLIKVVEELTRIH

CCn1nc(-c2ccccc2)c(-c2ccc3c(c2)CN(C2CCC(=O)NC2=O)C3=O)n1 (stereo not shown) = ≥ 25 nM

Task: Give the reported DC50 for this molecule. COc1ccc(-c2nn(C(F)F)cc2-c2ccc3c(c2)CN(C2CCC(=O)NC2=O)C3=O)cc1F (stereo not shown)
Result: ≥ 25 nM

Task: Give the reported DC50 for this molecule. Cn1cnc(-c2ccc3c(c2)CN(C2CCC(=O)NC2=O)C3=O)c1-c1ccc(Cl)c(C#N)c1 (stereo not shown)
Result: ≥ 25 nM

Task: Give the reported DC50 for this molecule. Cn1ncc(-c2ccc3c(c2)CN(C2CCC(=O)NC2=O)C3=O)c1-c1ccc(F)cc1 (stereo not shown)
Result: ≥ 25 nM

Task: Give the reported DC50 for this molecule. Cn1c(C2CC2)nc(-c2ccc3c(c2)CN(C2CCC(=O)NC2=O)C3=O)c1-c1cccnc1 (stereo not shown)
Result: ≥ 25 nM

Task: Give the reported DC50 for this molecule. Cn1cnc(-c2ccc3c(c2)CN(C2CCC(=O)NC2=O)C3=O)c1-c1ccc(F)c(F)c1 (stereo not shown)
Result: < 25 nM

Task: Give the reported DC50 for this molecule. Cn1ncc(-c2ccc3c(c2)CN(C2CCC(=O)NC2=O)C3=O)c1-c1cc(F)cc(F)c1 (stereo not shown) [Example 139]
Result: < 25 nM

Task: Give the reported DC50 for this molecule. Cn1cnc(-c2ccc3c(c2)CN(C2CCC(=O)NC2=O)C3=O)c1-c1cc(F)cc(C#N)c1 (stereo not shown)
Result: ≥ 25 nM

Task: Give the reported DC50 for this molecule. Cn1cnc(-c2ccc3c(c2)CN(C2CCC(=O)NC2=O)C3=O)c1-c1ccc(F)c(C(F)(F)F)c1 (stereo not shown)
Result: < 25 nM

Task: Give the reported DC50 for this molecule. Cn1cnc(-c2ccc3c(c2)CN(C2CCC(=O)NC2=O)C3=O)c1-c1ccc(F)cc1 (stereo not shown)
Result: ≥ 25 nM

Task: Give the reported DC50 for this molecule. Cc1ccccc1-c1c(-c2ccc3c(c2)CN(C2CCC(=O)NC2=O)C3=O)cnn1C (stereo not shown)
Result: ≥ 25 nM

Task: Give the reported DC50 for this molecule. CN1CCN(C(=O)c2cccc(-c3c(-c4ccc5c(c4)CN(C4CCC(=O)NC4=O)C5=O)ncn3C)c2)CC1 (stereo not shown)
Result: ≥ 25 nM

Task: Give the reported DC50 for this molecule. Cc1ccc(-c2c(-c3ccc4c(c3)CN(C3CCC(=O)NC3=O)C4=O)ncn2C)cc1Cl (stereo not shown)
Result: < 25 nM
